- system_name: CB2R (Homo sapiens)
- Sequence (P34972 whole entry): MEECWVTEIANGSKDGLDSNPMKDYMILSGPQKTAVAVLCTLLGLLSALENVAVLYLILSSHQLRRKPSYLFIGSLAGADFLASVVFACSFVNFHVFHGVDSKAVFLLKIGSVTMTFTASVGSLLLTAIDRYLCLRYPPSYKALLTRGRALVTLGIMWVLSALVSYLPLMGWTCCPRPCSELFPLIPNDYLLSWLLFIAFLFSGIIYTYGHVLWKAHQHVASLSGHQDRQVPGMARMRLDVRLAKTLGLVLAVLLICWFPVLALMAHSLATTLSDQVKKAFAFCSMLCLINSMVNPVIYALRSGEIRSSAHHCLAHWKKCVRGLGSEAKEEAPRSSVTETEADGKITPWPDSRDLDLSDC
- assay_explanation: CB2R β-arrestin recruitment
- Type: cell-based
- Design: expressed in transfected cells; host or cells: HEK-293T, transient transfection (PEI)
- run_parameters: normalized to CP 55,940
Field: Emax. Provide a value for each of the compounds that follow.
Numbers only, in %.

Field: example entries. Status: answers known.
>  <compound>
NC(=O)[C@@H]1CCCCN1C(=O)c1nn(Cc2ccc(F)cc2)c2ccccc12 [18o]

>  <u>
%

>  <Emax>
148

$$$$
>  <compound>
CCCCCn1nc(C(=O)N2CCCC[C@@H]2C(=O)OC)c2ccccc21 [16j]

>  <u>
%

>  <Emax>
65

$$$$
>  <compound>
NC(=O)[C@H]1CCCCN1C(=O)c1nn(Cc2ccc(F)cc2)c2ccccc12 [18p]

>  <u>
%

>  <Emax>
77

$$$$
>  <compound>
NC(=O)[C@H]1CCCCN1C(=O)c1cn(CC2CCCCC2)c2ccccc12 [18f]

>  <u>
%

>  <Emax>
88

$$$$
>  <compound>
NC(=O)[C@@H]1CCCCN1C(=O)c1cn(CC2CCCCC2)c2ccccc12 [18e]

>  <u>
%

>  <Emax>
120

$$$$

The record that follows has no Emax shown yet.
Task item: For CCCCCn1nc(C(=O)N2CCCC[C@H]2C(=O)OC)c2ccccc21 [16i] , what is its reported Emax?
Reply: 48

* * *

- system_name: UniProt P08183
- Sequence (P08183 whole entry): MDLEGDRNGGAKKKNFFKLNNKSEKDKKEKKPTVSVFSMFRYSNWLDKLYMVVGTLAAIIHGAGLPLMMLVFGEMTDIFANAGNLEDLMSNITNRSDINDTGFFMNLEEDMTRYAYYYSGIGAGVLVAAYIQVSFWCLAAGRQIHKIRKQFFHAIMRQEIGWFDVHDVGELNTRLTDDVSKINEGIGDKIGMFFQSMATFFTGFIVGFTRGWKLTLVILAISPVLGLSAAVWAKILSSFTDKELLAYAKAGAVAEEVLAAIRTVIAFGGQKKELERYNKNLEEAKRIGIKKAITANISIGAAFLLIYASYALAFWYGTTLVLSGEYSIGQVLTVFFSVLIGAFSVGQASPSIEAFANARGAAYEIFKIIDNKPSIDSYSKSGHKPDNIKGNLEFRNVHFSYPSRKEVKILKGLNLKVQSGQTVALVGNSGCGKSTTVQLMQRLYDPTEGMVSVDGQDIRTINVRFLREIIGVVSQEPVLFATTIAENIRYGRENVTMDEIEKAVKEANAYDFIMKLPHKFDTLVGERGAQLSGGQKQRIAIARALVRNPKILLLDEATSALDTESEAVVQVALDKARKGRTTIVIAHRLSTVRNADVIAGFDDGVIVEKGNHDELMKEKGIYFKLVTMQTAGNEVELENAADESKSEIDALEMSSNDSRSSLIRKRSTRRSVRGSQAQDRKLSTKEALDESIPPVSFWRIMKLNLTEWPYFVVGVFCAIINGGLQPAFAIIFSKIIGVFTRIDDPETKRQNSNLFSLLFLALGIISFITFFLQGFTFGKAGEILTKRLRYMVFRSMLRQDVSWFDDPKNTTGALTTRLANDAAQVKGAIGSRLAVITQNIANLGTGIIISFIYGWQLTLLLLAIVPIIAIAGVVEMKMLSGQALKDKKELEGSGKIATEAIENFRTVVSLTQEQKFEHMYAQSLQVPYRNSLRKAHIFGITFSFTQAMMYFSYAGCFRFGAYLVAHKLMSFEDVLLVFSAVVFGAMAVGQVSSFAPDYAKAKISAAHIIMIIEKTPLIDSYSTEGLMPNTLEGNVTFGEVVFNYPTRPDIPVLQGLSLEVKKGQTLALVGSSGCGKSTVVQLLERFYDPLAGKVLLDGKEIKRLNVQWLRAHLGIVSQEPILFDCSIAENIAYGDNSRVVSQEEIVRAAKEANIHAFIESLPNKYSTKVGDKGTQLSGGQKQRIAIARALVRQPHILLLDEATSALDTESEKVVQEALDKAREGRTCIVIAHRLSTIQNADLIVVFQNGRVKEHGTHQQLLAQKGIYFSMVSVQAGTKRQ
- assay_explanation: P-gp interaction, Calcein-AM experiment
- run_parameters: Calcein-AM
observation_type: pEC50
Give bare numbers, as −log10 of the molar value.

>  <compound>
NC(=O)[C@H]1CCCCN1C(=O)c1cn(CC2CCCCC2)c2ccccc12 [18f]

>  <pEC50>
4.21

$$$$

As a next step, examine the compound that follows.
Task item: Param item = NC(=O)[C@H]1CCCCN1C(=O)c1nn(Cc2ccc(F)cc2)c2ccccc12 [18p] ; retrieve measured pEC50.
Reply: 4.24

* * *

For each entry below, report its Papp A→B at 120 min value.
- assay_explanation: Drug transport (BBB permeability) in Caco-2 monolayer
- Assay type: in vitro ADME
- run_parameters: human; Caco-2 monolayer, 1 × 10^–4 M, 120 min
One number for each entry, in ×10⁻⁶ cm/s.

Take a look at these entries with their results.
>  <compound>
NC(=O)[C@@H]1CCCCN1C(=O)c1nn(Cc2ccc(F)cc2)c2ccccc12 [18o]

>  <observation_type>
Papp A→B at 120 min

>  <u>
×10⁻⁶ cm/s

>  <readout_value>
72.7

$$$$
>  <compound>
NC(=O)[C@H]1CCCCN1C(=O)c1nn(Cc2ccc(F)cc2)c2ccccc12 [18p]

>  <observation_type>
Papp A→B at 120 min

>  <u>
×10⁻⁶ cm/s

>  <readout_value>
63.2

$$$$
>  <compound>
NC(=O)[C@@H]1CCCCN1C(=O)c1cn(CC2CCCCC2)c2ccccc12 [18e]

>  <observation_type>
Papp A→B at 120 min

>  <u>
×10⁻⁶ cm/s

>  <readout_value>
99.5

$$$$

Now, please, on to the next compound.
Task item: Could you tell me which Papp A→B at 120 min is on file for NC(=O)[C@H]1CCCCN1C(=O)c1cn(CC2CCCCC2)c2ccccc12 [18f] ?
Reply: 79.2
